Ref: ChEMBL document CHEMBL3286227

# study.target: Serine/threonine-protein kinase RAF and Dual specificity mitogen-activated protein kinase kinase 1 (Raf/MEK) (Homo sapiens) (UniProt P04049+Q02750)
# Sequence (P04049 whole entry, looked up): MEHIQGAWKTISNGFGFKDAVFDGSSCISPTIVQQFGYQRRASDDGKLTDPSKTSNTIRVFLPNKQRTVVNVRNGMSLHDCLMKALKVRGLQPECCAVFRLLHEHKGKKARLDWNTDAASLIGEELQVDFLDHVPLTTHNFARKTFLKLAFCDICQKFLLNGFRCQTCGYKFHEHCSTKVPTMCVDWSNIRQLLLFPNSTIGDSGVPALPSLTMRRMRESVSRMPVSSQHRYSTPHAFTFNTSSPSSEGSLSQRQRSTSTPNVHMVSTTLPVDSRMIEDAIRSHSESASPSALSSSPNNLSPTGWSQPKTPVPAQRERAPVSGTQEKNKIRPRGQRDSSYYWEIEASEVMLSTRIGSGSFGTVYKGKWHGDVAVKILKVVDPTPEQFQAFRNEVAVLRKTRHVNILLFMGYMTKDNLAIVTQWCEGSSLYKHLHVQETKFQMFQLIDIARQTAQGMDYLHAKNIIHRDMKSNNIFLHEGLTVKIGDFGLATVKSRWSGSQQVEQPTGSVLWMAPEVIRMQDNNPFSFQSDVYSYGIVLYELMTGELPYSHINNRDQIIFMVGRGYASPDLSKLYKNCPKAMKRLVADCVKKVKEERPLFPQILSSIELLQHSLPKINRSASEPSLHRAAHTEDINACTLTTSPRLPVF
# Sequence (Q02750 whole entry, looked up): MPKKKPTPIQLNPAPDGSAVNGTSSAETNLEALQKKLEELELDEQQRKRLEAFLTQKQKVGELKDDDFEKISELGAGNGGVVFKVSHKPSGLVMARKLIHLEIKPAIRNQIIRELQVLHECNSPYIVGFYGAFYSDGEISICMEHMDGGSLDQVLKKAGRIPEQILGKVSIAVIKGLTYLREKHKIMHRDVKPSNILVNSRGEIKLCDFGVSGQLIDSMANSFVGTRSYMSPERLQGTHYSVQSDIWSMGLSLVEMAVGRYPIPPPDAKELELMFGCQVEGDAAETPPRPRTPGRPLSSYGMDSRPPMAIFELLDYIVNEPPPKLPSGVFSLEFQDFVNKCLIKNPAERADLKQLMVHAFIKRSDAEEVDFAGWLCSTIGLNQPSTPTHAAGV
# experiment.description: Inhibition of RAF-1/MEK1 (unknown origin) assessed as at 10 uM after 5 mins by fluorescence assay relative to control
# Format: protein assay
property.name: inhibition (%)

| smiles.entry | units.label | inhibition |
| --- | --- | --- |
| N=C(N)Nc1ccc(Oc2ccc(NC(=N)N)cc2)cc1 | % | 2 |

1: N=C(N)Nc1ccc(Nc2cccc(NC(=N)N)c2)cc1
2: N=C(N)Nc1ccc(Oc2cccc(NC(=N)N)c2)cc1
3: CC(=O)Nc1cccc(Nc2ccc(NC(=N)Nc3ccc(Cl)c(C(F)(F)F)c3)cc2)c1
List by increasing inhibition. In your reply, arrange the labels in the requested order.
2, 3, 1
(2: 22%, 3: 38%, 1: 86%)

P: N=C(N)Nc1cccc(C(=O)c2ccc(NC(=N)Nc3ccc(Cl)c(C(F)(F)F)c3)cc2)c1
Q: CC(=O)Nc1cccc(Oc2ccc(NC(=N)Nc3ccc(Cl)c(C(F)(F)F)c3)cc2)c1
Given the listed records, identify the one among P and Q with higher inhibition. Answer by quoting the chosen item's label.
P

P: N=C(N)Nc1cccc(Oc2ccc(NC(=N)Nc3ccc(Cl)c(C(F)(F)F)c3)cc2)c1
Q: N=C(N)Nc1cccc(Oc2ccc(NC(=N)Nc3ccccc3)cc2)c1
Could you determine which record has the numerically smaller inhibition? Candidates: P and Q Answer by quoting the chosen item's label.
Q
(Q: 4%, P: 96%)
